Measured target: BmTrxR (isoform D) (Brugia malayi)
Construct: gene bma-trxr-1; full-length isoform D, 598 residues, Grx-like domain 1-102 and TrxR domain 103-598, Sec at 597; pABC2a, N-terminal His-SUMO tag removed; E. coli C321.deltaA; homodimer
Sequence (A0A1I9G0T9 116-713): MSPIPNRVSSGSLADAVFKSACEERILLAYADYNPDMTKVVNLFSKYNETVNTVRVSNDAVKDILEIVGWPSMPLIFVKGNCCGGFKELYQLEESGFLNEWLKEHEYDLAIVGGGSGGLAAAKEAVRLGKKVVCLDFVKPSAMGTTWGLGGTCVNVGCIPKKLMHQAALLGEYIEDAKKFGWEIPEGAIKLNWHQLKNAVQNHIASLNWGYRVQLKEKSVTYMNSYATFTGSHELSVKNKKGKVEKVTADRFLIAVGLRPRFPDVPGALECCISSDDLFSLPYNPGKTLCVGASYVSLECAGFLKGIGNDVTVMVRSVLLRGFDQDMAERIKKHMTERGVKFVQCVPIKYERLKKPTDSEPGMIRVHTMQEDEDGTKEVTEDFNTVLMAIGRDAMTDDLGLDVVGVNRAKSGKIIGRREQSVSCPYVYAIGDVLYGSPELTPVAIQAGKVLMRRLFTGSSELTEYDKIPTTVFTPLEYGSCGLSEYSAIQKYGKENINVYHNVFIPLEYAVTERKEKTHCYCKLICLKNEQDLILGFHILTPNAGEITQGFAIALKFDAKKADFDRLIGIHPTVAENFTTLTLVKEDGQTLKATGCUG
Protocol description: DTNB reduction, A412, dose-response fit
Assay type: biochemical
Measurement context: read-out: Apparent IC50 (μM) ^a
Outcome measure: IC50 (µM)
Value expressed in µM; do not type the unit.

Recall the recorded IC50 for COc1ccc([N+](=O)[O-])c(S(=O)(=O)c2ccc(Cl)cc2)n1 [TRi-1] with BmTrxR (isoform D) (Brugia malayi) and state it.
0.013
